System: K562
Assay: Antiproliferative activity against human K562 cells after 72 hrs by MTT assay
Format: functional, cell-based
Details: K562, 72 h
Below, each entry is listed alongside its reported pIC50.
pIC50 (log units): -log10 of the concentration in mol/L.

Guide cases for pIC50, answers given:
compound=COc1ccc2c(c1O)COC[C@H]2c1cc(OC)c(OC)c(OC)c1 assay_system=K562 measurement_name=pIC50 observed_measurement=6.34
compound="COc1ccc2c(c1O)COC(C)C2=O (stereo unspecified)" assay_system=K562 measurement_name=pIC50 observed_measurement=4.69

Input: Look up pIC50: COc1ccc2c(c1O)COC[C@@H]2c1cc(OC)c(OC)c(OC)c1
Output: 8.10

Input: Look up pIC50: COc1ccc2c(c1O)COC=C2c1cc(OC)c(OC)c(OC)c1
Output: 7.72

Input: Look up pIC50: COc1ccc(/C=C\c2cc(OC)c(OC)c(OC)c2)cc1O
Output: 7.82

Input: Look up pIC50: COc1ccc2c(c1O)COCC2c1cc(OC)c(OC)c(OC)c1 (racemic)
Output: 8.00
